Molecular target: IRAK4 (Homo sapiens (Human), UniProt Q9NWZ3)
Experiment: IRAK4 Degradation HiBiT Assay
Conditions: read-out: Cellular IRAK4 HiBiT: DC50; Table 4; HiBiT-tagged Jurkat cells, 4 hrs
Sequence (Q9NWZ3 whole entry): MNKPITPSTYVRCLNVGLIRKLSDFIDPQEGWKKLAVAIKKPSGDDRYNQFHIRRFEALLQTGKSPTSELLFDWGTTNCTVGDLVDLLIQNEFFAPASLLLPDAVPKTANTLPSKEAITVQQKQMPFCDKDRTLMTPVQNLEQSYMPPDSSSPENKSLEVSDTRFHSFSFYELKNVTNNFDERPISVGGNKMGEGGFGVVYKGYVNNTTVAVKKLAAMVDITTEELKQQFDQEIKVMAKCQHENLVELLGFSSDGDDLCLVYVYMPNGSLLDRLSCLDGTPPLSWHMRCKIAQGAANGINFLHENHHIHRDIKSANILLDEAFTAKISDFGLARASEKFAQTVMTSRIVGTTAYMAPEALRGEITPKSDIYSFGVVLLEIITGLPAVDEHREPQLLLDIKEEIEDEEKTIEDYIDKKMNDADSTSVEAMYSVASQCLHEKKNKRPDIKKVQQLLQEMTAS
measuredMetric: DC50 (nM)

INSERT INTO measurements (molecule, measuredmetric, uom, experimentalvalue) VALUES
  ('CN[C@@H](C)C(=O)N[C@H](C(=O)N1C[C@@H](NC(=O)CCCCCCC(=O)N2CCN(c3nnc(-c4cnc(-c5ccc6cc(C#N)cnn56)cc4NC(C)C)s3)CC2)C[C@H]1C(=O)N[C@@H]1CCCc2ccccc21)C1CCCCC1', 'DC50', 'nM', 422),
  ('CC(C)Nc1cc(-c2ccc3cc(C#N)cnn23)ncc1-c1nnc(N2CCN(CC3CCN(c4ccc(C(=O)N(C)C5CCC(=O)NC5=O)cc4)CC3)CC2)s1 (stereo not shown)', 'DC50', 'nM', 326),
  ('CNc1cc(-c2ccc3cc(C#N)cnn23)ncc1-c1nnc([C@H]2CC[C@H](NC(=O)CCOCCNc3cccc4c3C(=O)N(C3CCC(=O)NC3=O)C4=O)CC2)s1 (stereo partly shown)', 'DC50', 'nM', 12.9),
  ('CC(C)Nc1cc(-c2ccc3cc(C#N)cnn23)ncc1-c1nnc(N2CCN(C(=O)CCOCCNc3cccc4c3C(=O)N(C3CCC(=O)NC3=O)C4=O)CC2)s1 (stereo not shown)', 'DC50', 'nM', 228);

1: CNc1cc(-c2ccc3cc(C#N)cnn23)ncc1-c1nnc([C@H]2CC[C@H](NC(=O)CN3CCN(c4ccc5c(c4)C(=O)N(C4CCC(=O)NC4=O)C5=O)CC3)CC2)s1 (stereo partly shown)
2: CC(C)Nc1cc(-c2ccc3cc(C#N)cnn23)ncc1-c1nnc([C@H]2CC[C@H](NC(=O)CCOCCOCCNc3cccc4c3C(=O)N(C3CCC(=O)NC3=O)C4=O)CC2)s1 (stereo partly shown)
3: CN[C@@H](C)C(=O)N[C@H](C(=O)N1CCC[C@H]1c1nc(C(=O)c2cccc(OCCOCCOCCOCCC(=O)N3CCN(c4nnc(-c5cnc(-c6ccc7cc(C#N)cnn67)cc5NC(C)C)s4)CC3)c2)cs1)C1CCCCC1
Please rank these molecules by DC50 in descending order. To answer, write out the labels according to the requested order.
3, 2, 1
(3: 934 nM, 2: 32 nM, 1: 5.1 nM)

====

Molecular target: IRAK4 (Homo sapiens (Human))
Assay: IRAK4 Degradation HiBiT Assay
Details: read-out: Cellular IRAK4 HiBiT: DC50; Table 5; multiple runs; HiBiT-tagged Jurkat cells, 4 hrs
measuredMetric: DC50 (nM)

INSERT INTO measurements (compound, experimentalvalue) VALUES
  ('CNc1cc(-c2ccc3cc(C#N)cnn23)ncc1-c1nnc([C@H]2CC[C@H](N(C)C(=O)C3CCN(c4ccc5c(c4)C(=O)N(C4CCC(=O)NC4=O)C5=O)CC3)CC2)s1 (stereo partly drawn)', 32),
  ('CNc1cc(-c2ccc3cc(C#N)cnn23)ncc1-c1nnc([C@H]2CC[C@@H](NC(=O)CCOCCOCCOCCNc3cccc4c3C(=O)N(C3CCC(=O)NC3=O)C4=O)CC2)s1 (stereo partly drawn)', 27.1);

====

Target: IRAK4 (Homo sapiens (Human), UniProt Q9NWZ3)
Assay: IRAK4 Biochemical HTRF Kinase Assay
Settings: Table 4; read-out: IRAK4 HTRF biochemical: IC50
Sequence (Q9NWZ3 whole entry, species assumed): as the sequence (Q9NWZ3 whole entry) above
measuredMetric: IC50 (nM)

Known IC50 results, listed for orientation:
INSERT INTO results (compound, uom, experimentalvalue) VALUES
  ('CC(C)Nc1cc(-c2ccc3cc(C#N)cnn23)ncc1-c1nnc(N2CCC(NCC3CCN(c4ccc5c(c4)C(=O)N(C4CCC(=O)NC4=O)C5=O)CC3)CC2)s1 (centres unmarked) [Example 22]', 'nM', 0.8),
  ('CNc1cc(-c2ccc3cc(C#N)cnn23)ncc1-c1nnc([C@H]2CC[C@H](NC(=O)CCCCCOc3cc(-c4scnc4C)ccc3CNC(=O)[C@@H]3C[C@@H](O)CN3C(=O)[C@@H](NC(=O)C3(F)CC3)C(C)(C)C)CC2)s1 [Example 60]', 'nM', 3.55);

A: CN[C@@H](C)C(=O)N[C@H](C(=O)N1CCC[C@H]1c1nc(C(=O)c2cccc(OCCOCCC(=O)N3CCN(c4nnc(-c5cnc(-c6ccc7cc(C#N)cnn67)cc5NC(C)C)s4)CC3)c2)cs1)C1CCCCC1 [Example 50]
B: Cc1ncsc1-c1ccc([C@H](C)NC(=O)[C@@H]2C[C@@H](O)CN2C(=O)[C@@H](NC(=O)CCCCCC(=O)N2CCN(c3nnc(-c4cnc(-c5ccc6cc(C#N)cnn56)cc4NC(C)C)s3)CC2)C(C)(C)C)cc1 [Example 37]
Which is greater in IC50, the first item A or the second item B ? Give the chosen item's label as your response.
B
(B: 6 nM, A: 3.1 nM)

====

Molecular target: UniProt Q9NWZ3
Assay: IRAK4 Degradation HiBiT Assay
Conditions: read-out: Cellular IRAK4 HiBiT: DC50; Table 5; multiple runs; HiBiT-tagged Jurkat cells, 4 hrs
measuredMetric: DC50 (nM)

a: CNc1cc(-c2ccc3cc(C#N)cnn23)ncc1-c1nnc([C@H]2CC[C@H](NC(=O)CCC(=O)N[C@H](C(=O)N3C[C@H](O)C[C@H]3C(=O)N[C@@H](C)c3ccc(Br)cc3)C(C)(C)C)CC2)s1
b: CNc1cc(-c2ccc3cc(C#N)cnn23)ncc1-c1nnc([C@H]2CC[C@@H](NC(=O)C3CCN(c4cccc5c4C(=O)N(C4CCC(=O)NC4=O)C5=O)CC3)CC2)s1 (some centres unmarked)
c: CC(C)Nc1cc(-c2ccc3cc(C#N)cnn23)ncc1-c1nnc(N2CCN(C(=O)CCN3CCN(c4ccc5c(c4)C(=O)N(C4CCC(=O)NC4=O)C5=O)CC3)CC2)s1 (centres unmarked)
d: CNc1cc(-c2ccc3cc(C#N)cnn23)ncc1-c1nnc(C23CCC(NC(=O)C4CCN(c5cccc6c5C(=O)N(C5CCC(=O)NC5=O)C6=O)CC4)(CC2)CC3)s1 (centres unmarked)
e: CNc1cc(-c2ccc3cc(C#N)cnn23)ncc1-c1nnc([C@H]2CC[C@@H](NC(=O)CN3CCC4(CC3)CN(c3ccc5c(c3)C(=O)N(C3CCC(=O)NC3=O)C5=O)C4)CC2)s1 (some centres unmarked)
In ascending order of recorded DC50, list the compounds from the set above. To answer, write out the labels according to the requested order.
d, c, e, b, a
(d: 21.9 nM, c: 37.2 nM, e: 187 nM, b: 774 nM, a: 2520 nM)

====

Target: IRAK4 (Homo sapiens (Human), UniProt Q9NWZ3)
Test: IRAK4 Degradation HiBiT Assay
Conditions: read-out: Cellular IRAK4 HiBiT: DC50; Table 5; multiple runs; HiBiT-tagged Jurkat cells, 4 hrs
measuredMetric: DC50 (nM)

Known DC50 results, listed for orientation:
INSERT INTO results (compound, experimentalvalue) VALUES
  ('CN[C@@H](C)C(=O)N[C@H](C(=O)N1C[C@@H](NC(=O)CCOCCC(=O)N2CCN(c3nnc(-c4cnc(-c5ccc6cc(C#N)cnn56)cc4NC(C)C)s3)CC2)C[C@H]1C(=O)N[C@@H]1CCCc2ccccc21)C1CCCCC1 [Example 54]', 794),
  ('CN[C@@H](C)C(=O)N[C@H](C(=O)N1C[C@@H](NC(=O)CCCCC(=O)N2CCN(c3nnc(-c4cnc(-c5ccc6cc(C#N)cnn56)cc4NC(C)C)s3)CC2)C[C@H]1C(=O)N[C@@H]1CCCc2ccccc21)C1CCCCC1 [Example 51]', 502);

P: Cc1ncsc1-c1ccc(CNC(=O)[C@@H]2C[C@@H](O)CN2C(=O)[C@@H](NC(=O)C2(F)CC2)C(C)(C)C)c(OCCOCCC(=O)N2CCN(c3nnc(-c4cnc(-c5ccc6cc(C#N)cnn56)cc4NC(C)C)s3)CC2)c1 [Example 47]
Q: CNc1cc(-c2ccc3cc(C#N)cnn23)ncc1-c1nnc([C@H]2CC[C@H](NC(=O)C3CCN(c4cccc5c4C(=O)N(C4CCC(=O)NC4=O)C5=O)CC3)CC2)s1 (some centres unmarked) [Example 139]
Which is greater in DC50, the first item P or the second item Q ? Give the chosen item's label as your response.
P
(P: 144 nM, Q: 10.6 nM)

====

Molecular target: IRAK4 (Homo sapiens (Human))
Assay: IRAK4 Degradation HiBiT Assay
Conditions: Jurkat, read-out: Cellular IRAK4 HiBiT: Dmax, Table 5; multiple runs; HiBiT-tagged Jurkat cells, 4 hrs
measuredMetric: Dmax (%)

INSERT INTO assay_data (compound, experimentalvalue) VALUES
  ('CNc1cc(-c2ccc3cc(C#N)cnn23)ncc1-c1nnc(C2CCC(NC(=O)[C@H]3C[C@H]3C(=O)N[C@H](C(=O)N3C[C@H](O)C[C@H]3C(=O)N[C@@H](C)c3ccc(-c4scnc4C)cc3)C(C)(C)C)CC2)s1 (mixture of isomers)', 80),
  ('CNc1cc(-c2ccc3cc(C#N)cnn23)ncc1-c1nnc([C@H]2C[C@H](NC(=O)C[C@H](NC(=O)[C@@H]3C[C@@H](O)CN3C(=O)[C@@H](NC(=O)C3(F)CC3)C(C)(C)C)c3ccc(-c4scnc4C)cc3)C2)s1', 111),
  ('CNc1cc(-c2ccc3cc(C#N)cnn23)ncc1-c1nnc(N2CCC(N3CCN(C(=O)c4ccc5c(c4)C(=O)N(C4CCC(=O)NC4=O)C5=O)CC3)CC2)s1 (stereo not drawn)', 96),
  ('Cc1ncsc1-c1ccc([C@H](C)NC(=O)[C@@H]2C[C@@H](O)CN2C(=O)[C@@H](NC(=O)CCCCC(=O)N2CCN(c3nnc(-c4cnc(-c5ccc6cc(C#N)cnn56)cc4NC(C)C)s3)CC2)C(C)(C)C)cc1', 97),
  ('CN[C@@H](C)C(=O)N[C@H](C(=O)N1C[C@@H](NC(=O)CCOCCC(=O)N2CCN(c3nnc(-c4cnc(-c5ccc6cc(C#N)cnn56)cc4NC(C)C)s3)CC2)C[C@H]1C(=O)N[C@@H]1CCCc2ccccc21)C1CCCCC1', 48),
  ('CNc1cc(-c2ccc3cc(C#N)cnn23)ncc1-c1nnc(C23CCC(NC(=O)[C@H]4C[C@H]4C(=O)N[C@H](C(=O)N4C[C@H](O)C[C@H]4C(=O)N[C@@H](C)c4ccc(-c5scnc5C)cc4)C(C)(C)C)(CC2)CC3)s1 (mixture of isomers)', 115),
  ('CNc1cc(-c2ccc3cc(C#N)cnn23)ncc1-c1nnc(N2CC3(CCN(C(=O)COc4cc(-c5scnc5C)ccc4CNC(=O)[C@@H]4C[C@@H](O)CN4C(=O)[C@@H](NC(=O)C4(F)CC4)C(C)(C)C)CC3)C2)s1', 85),
  ('CNc1cc(-c2ccc3cc(C#N)cnn23)ncc1-c1nnc(C23CCC(NC(=O)CCOCCOCCOCCNc4cccc5c4C(=O)N(C4CCC(=O)NC4=O)C5=O)(CC2)CC3)s1 (stereo not drawn)', 93),
  ('CNc1cc(-c2ccc3cc(C#N)cnn23)ncc1-c1nnc(C23CCC(NC(=O)C4CN(C5CCN(c6ccc7c(c6)C(=O)N(C6CCC(=O)NC6=O)C7=O)CC5)C4)(CC2)CC3)s1 (stereo not drawn)', 99);
